- assay system: Adenosine A2 receptor (Rattus norvegicus, UniProt P29276+P30543)
- assay info: Binding affinity against Adenosine A2 receptor in rat striatal membrane, using [3H]-NECA as the radioligand.
observation type: log10 of Ki (log10 of the value in µM)
The common logarithm of Ki in µM is what is listed.

Known log10 of Ki results, listed for orientation:
Which value of log10 of Ki has been reported for CC(C)Cn1c(=O)n(C)c(=O)c2nc[nH]c21 [ISOBUTYLMETHYLXANTHINE] in the records?
1.14

// returns reported log10 of Ki for input CCCCn1c(=O)c2c3nc[nH]c3ccc2n(CCCC)c1=O
0.29

Requested field: log10 of Ki. Item: CCn1c(=O)c2c3nc(-c4ccccc4)[nH]c3ccc2n(CC)c1=O
1.76

Param item = CCCn1c(=O)c2c3nc[nH]c3ccc2n(CCC)c1=O ; retrieve measured log10 of Ki.
-0.10

Requested read-out: log10 of Ki. Entry: CC(C)Cn1c(=O)n(C)c(=O)c2c3nc[nH]c3ccc21
0.29

Kindly give each listed record's log10 of Ki.
1. CC(C)Cn1c(=O)n(C)c(=O)c2cc3[nH]cnc3cc21
2. Cn1c(=O)c2cc3nc[nH]c3cc2n(C)c1=O
3. Cn1c(=O)c2c3nc(-c4ccccc4)[nH]c3ccc2n(C)c1=O
4. CCCCn1c(=O)c2cc3nc[nH]c3cc2n(CCCC)c1=O
5. Cn1c(=O)c2c3c(ccc2n(C)c1=O)ncn3C
6. Cn1c(=O)c2cc3c(cc2n(C)c1=O)ncn3C

1. 0.38
2. 1.93
3. 1.02
4. -0.17
5. 1.10
6. 1.36

Please state, for each entry, its recorded log10 of Ki.
1. Cn1c(=O)c2c3nc[nH]c3ccc2n(C)c1=O
2. Cn1c(=O)c2cc3ncn(C)c3cc2n(C)c1=O
3. CCCn1c(=O)c2cc3nc[nH]c3cc2n(CCC)c1=O

1.25
1.76
0.12

====

- assay system: Adenosine receptor A1 (Rattus norvegicus, UniProt P25099)
- Sequence (P25099 whole entry): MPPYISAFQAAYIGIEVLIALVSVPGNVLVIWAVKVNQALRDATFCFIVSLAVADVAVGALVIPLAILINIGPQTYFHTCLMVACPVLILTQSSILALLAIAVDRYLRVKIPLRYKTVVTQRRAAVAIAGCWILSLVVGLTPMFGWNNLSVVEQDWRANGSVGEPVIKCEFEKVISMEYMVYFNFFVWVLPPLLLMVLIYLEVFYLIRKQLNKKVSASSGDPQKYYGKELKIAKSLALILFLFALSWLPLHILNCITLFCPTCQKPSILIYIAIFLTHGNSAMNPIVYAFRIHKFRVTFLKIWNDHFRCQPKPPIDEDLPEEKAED
Mark 1 (yes) for Ki under 900 nM, 0 (no) if at or over.

Check if Ki falls below 900 nM for CCCCn1c(=O)c2cc3nc[nH]c3cc2n(CCCC)c1=O .
1 (yes)

Others:
Here's an entry: CC(C)Cn1c(=O)n(C)c(=O)c2c3nc[nH]c3ccc21 . Is its Ki below 900 nM?
1 (yes)

Dear colleague, could you confirm whether Ki of CC(C)Cn1c(=O)n(C)c(=O)c2cc3[nH]cnc3cc21 falls below 900 nM? Thanks.
1 (yes)

Report whether reported Ki is lower than 900 nM (strictly) for CCn1c(=O)c2cc3nc(-c4ccccc4)[nH]c3cc2n(CC)c1=O
0 (no)

Lab note: confirm whether the reported Ki for this compound is below 900 nM, equality not counting. compound: Cn1c(=O)c2c3c(ccc2n(C)c1=O)ncn3C
0 (no)

Consider the compound Cn1c(=O)c2c3nc(-c4ccccc4)[nH]c3ccc2n(C)c1=O . Is its Ki strictly less than 900 nM?
1 (yes)

# TODO verify Ki < 900 nM strictly for this compound: Cn1c(=O)c2cc3c(cc2n(C)c1=O)ncn3C
0 (no)

Hello, is Ki of the following compound strictly smaller than 900 nM? Cn1c(=O)c2cc3ncn(C)c3cc2n(C)c1=O
0 (no)
